quantity: melting point

For orientation, consider the following solved cases.
COc1cccc(CNC(=O)c2nc3scc(COc4ccc(CC(=O)O)cc4)c3c(=O)[nH]2)c1 : 228 to 230 °C
COC(=O)C(C)(C)Cc1c(SC(C)(C)C)c2cc(OCc3ccc4cnccc4n3)ccc2n1Cc1ccc(Cl)cc1 : 152 to 155 °C
CCOC(=O)C1(C(C)C)OC2(O)C3CCCN3C(=O)C(C(C)C)N2C1=O (stereo not given) : 103 to 104 °C

Next:
query: Report melting point, nothing else, for this compound: CC(C)(C)C1C(O)=C(C2=NS(=O)(=O)c3c(NS(C)(=O)=O)cccc32)C(=O)N1Cc1ccc(F)cc1 (stereo not given)
result: 245 to 250 °C
